Quick reference: IC50 of the listed items.
TARGET UNDER TEST: stromelysin (Homo sapiens)
MEASUREMENT PROTOCOL: biochemical
Number only, in nM; omit the unit.

Example results:
{"columns": ["COMPOUND", "IC50, nM"],
 "data": [
  ["Cc1nc(NC(=O)[C@@H](NC(=O)[C@H](CC(C)C)[C@H](O)C(=O)NO)C(C)(C)C)sc1C", 20],
  ["CNC(=O)[C@H](CC(C)C)NC(=O)[C@H](CC(C)C)[C@H](O)C(=O)NO [Comparator 5, reference compound]", 90]
]}

The record that follows has no IC50 shown yet.
Prompt line: Record request: IC50 value, item `CC(C)C[C@@H](C(=O)N[C@H](C(=O)Nc1ccccc1)C(C)(C)C)[C@H](O)C(=O)NO`
Response line: 9

###

TARGET UNDER TEST: 72 kDa Gelatinase (Homo sapiens, UniProt P08253)
Construct: endogenous in cells; host or cells: RPMI-7951 cells
Sequence (P08253 110-660): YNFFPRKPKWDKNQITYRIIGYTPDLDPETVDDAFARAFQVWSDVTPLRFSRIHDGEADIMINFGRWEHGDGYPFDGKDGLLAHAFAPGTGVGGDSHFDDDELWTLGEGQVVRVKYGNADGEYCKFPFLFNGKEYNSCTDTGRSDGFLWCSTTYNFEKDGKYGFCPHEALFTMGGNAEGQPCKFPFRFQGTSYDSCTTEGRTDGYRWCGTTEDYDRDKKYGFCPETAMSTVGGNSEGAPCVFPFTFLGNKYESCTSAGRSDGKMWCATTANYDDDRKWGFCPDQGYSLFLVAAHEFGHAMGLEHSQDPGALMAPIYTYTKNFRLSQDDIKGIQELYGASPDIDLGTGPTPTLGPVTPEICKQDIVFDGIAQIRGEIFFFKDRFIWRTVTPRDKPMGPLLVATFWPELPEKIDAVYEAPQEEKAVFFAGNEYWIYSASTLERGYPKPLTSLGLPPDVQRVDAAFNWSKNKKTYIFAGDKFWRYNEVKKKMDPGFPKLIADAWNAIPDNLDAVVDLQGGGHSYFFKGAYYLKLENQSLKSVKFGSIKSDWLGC
MEASUREMENT PROTOCOL: Inhibition of 72 kDa gelatinase (14C-radiolabelled gelatin; Sellers et al)
Assay type: biochemical
ASSAY METRIC: pIC50
Note: pIC50 values are expressed as the negative base-10 logarithm of concentration in M.

Prompt line: Hi! What's the reported pIC50 for CNC(=O)[C@@H](NC(=O)[C@@H](CC(=O)NO)CC(C)C)C(C)(C)C [Comparator 3, reference compound] on 72 kDa Gelatinase (Homo sapiens, UniProt P08253)?
Response line: 8.10

###

TARGET UNDER TEST: stromelysin (Homo sapiens, UniProt P08254)
Sequence (P08254 100-477): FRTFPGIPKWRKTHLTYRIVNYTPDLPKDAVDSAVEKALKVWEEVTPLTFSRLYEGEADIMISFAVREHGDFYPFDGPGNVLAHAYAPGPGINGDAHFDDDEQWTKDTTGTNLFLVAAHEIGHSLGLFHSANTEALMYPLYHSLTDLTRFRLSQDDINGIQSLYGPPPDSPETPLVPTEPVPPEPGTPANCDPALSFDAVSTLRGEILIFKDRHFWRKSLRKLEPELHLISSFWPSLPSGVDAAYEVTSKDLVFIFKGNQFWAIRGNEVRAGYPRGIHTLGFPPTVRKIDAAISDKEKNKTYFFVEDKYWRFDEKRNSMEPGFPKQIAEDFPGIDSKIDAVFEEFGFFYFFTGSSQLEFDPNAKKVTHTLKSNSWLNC
MEASUREMENT PROTOCOL: biochemical
pIC50: −log10 of the molar value.
Label 1 when pIC50 >= 8; otherwise 0.

Examples with answers:
{"columns": ["MOLECULE", "CATEGORY LABEL"],
 "data": [
  ["CNC(=O)[C@@H](NC(=O)[C@@H](CC(=O)NO)CC(C)C)C(C)(C)C [Comparator 3, reference compound]", 0],
  ["CC(C)C[C@H](NC(=O)[C@H](CC(C)C)[C@H](O)C(=O)NO)C(=O)Nc1ccc2ccccc2c1 [Example 5]", 1],
  ["CC(C)C[C@H](CC(=O)NO)C(=O)N[C@H](C(=O)Nc1ccccn1)C(C)(C)C [Example 3]", 0],
  ["CNC(=O)[C@H](Cc1ccccc1)NC(=O)[C@H](CC(C)C)[C@H](O)C(=O)NO [Comparator 4, reference compound]", 0]
]}

Prompt line: Please check the record CC(C)C[C@@H](C(=O)N[C@H](C(=O)Nc1ccccn1)C(C)(C)C)[C@H](O)C(=O)NO [Example 8] and state if its pIC50 is at or above 8.
Response line: 0

Prompt line: # check: pIC50 of COc1ccc(NC(=O)[C@H](Cc2ccccc2)NC(=O)[C@H](CC(C)C)[C@H](O)C(=O)NO)cc1 [Example 6] is greater than or equal to 8
Response line: 1
